Can you tell me log10 of EC50 for the items I'm about to list?
target: NTR1 (Homo sapiens, UniProt P30989); experiment: NTR1 high-content imaging (HCS) dose response, NTR1-U2OS cells; conditions: Ave. ± S.E.M., n = 4 unless otherwise noted; read-out: HCS NTR1 Potency EC50
Sequence (P30989 whole entry, species assumed): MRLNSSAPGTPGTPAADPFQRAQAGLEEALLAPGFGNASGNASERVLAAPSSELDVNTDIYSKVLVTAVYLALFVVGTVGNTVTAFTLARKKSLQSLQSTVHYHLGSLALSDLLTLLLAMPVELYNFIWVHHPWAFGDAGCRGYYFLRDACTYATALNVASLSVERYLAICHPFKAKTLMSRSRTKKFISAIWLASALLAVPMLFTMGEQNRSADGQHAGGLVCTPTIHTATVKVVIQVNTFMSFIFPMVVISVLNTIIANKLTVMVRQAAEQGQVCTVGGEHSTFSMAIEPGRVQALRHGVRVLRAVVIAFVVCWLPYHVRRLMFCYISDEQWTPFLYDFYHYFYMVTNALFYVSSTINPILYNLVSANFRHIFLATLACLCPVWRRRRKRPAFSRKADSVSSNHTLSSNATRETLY
Please interpret these as log10 of EC50 where EC50 is in µM.

COc1cc2nc(CC(C)C)nc(N3CCN(c4ccccc4OC)CC3)c2cc1OC [Compound 313] = 1.18
COc1cc2nc(Cc3ccccc3)nc(N3CCN(c4ccccc4OC)CC3)c2cc1OC [Compound 309] = 1.14
COc1cc2nc(CC3CC3)nc(N3CCN(c4ccccc4OC)CC3)c2cc1OC [Compound 317] = 1.15
COc1ccccc1CN1CCN(c2nc(C3CC3)nc3cc(OC)c(OC)cc23)CC1 [Compound 343] = 1.54
CCOc1ccccc1N1CCN(c2nc(C3CC3)nc3cc(OC)c(OC)cc23)CC1 [Compound 339] = 0.79

Look up log10 of EC50 for the entries below, preserving their order.
1. COc1cc2nc(C3CC3)nc(N3CCN(C(=O)c4ccccc4OC)CC3)c2cc1OC [Compound 345]
2. COc1cc2nc(-c3ccccc3)nc(N3CCN(c4ccccc4OC)CC3)c2cc1OC [6,7-di-OMe; phenyl; 2-OMe]
3. COc1cc2nc(C3CCC3)nc(N3CCN(c4ccccc4F)CC3)c2cc1OC [Compound 324]

Reply:
1. 1.83
2. 1.30
3. 1.25

---

Could you please report measured EC50 for the items listed next?
biological target: NTR1 (Homo sapiens, UniProt P30989); experiment: NTR1 high-content imaging (HCS) dose response, NTR1-U2OS cells; conditions: Ave. ± S.E.M., n = 4 unless otherwise noted; read-out: HCS NTR1 Potency EC50
Could you kindly put the unit after your number?

Worked cases, EC50 given:
COc1ccc2nc(C3CCC3)nc(N3CCN(c4ccccc4OC)CC3)c2c1 = 10 µM
COc1cc2nc(C3CC3)nc(N3CCN(C(=O)c4ccccc4)CC3)c2cc1OC = 45.3 µM
COc1cc2nc(C3CCC3)nc(N3CCN(c4ccccn4)CC3)c2cc1OC = 25.5 µM

// batch mode: one EC50 value per listed entry
1. COc1ccc2c(N3CCN(c4ccccc4OC)CC3)nc(C3CCC3)nc2c1
2. COc1cc2nc(C3CC3)nc(N3CCN(c4ccccc4Cl)CC3)c2cc1OC

Reply:
1. 30 µM
2. 19.8 µM

---

assay: Aqueous solubility, direct UV kinetic solubility method; format: physicochemical; settings: pION's buffer, aqueous buffer, kinetic from dmso stock; pH 5.0, molar units; read-out: Aqueous Solubility in pION's buffer
quantity.kind: solubility at 18 h

Ask: Given the compound COc1cc2nc(C3CC3)nc(N3CCN(c4ccccc4OC)CC3)c2cc1OC , what is its reported solubility at 18 h?
Reply: > 297 µM

---

molecular target: NTR1 (Homo sapiens, UniProt P30989); experiment: NTR1 high-content imaging (HCS) dose response, NTR1-U2OS cells; conditions: Ave. ± S.E.M., n = 4 unless otherwise noted; read-out: HCS NTR1 Potency EC50
Lab note: cut-off is 20 µM. Strictly less in EC50 is satisfied. Exactly 20 µM or more is not satisfied.

// known answers, use as guide
C=Cc1nc(N2CCN(c3ccccc3OC)CC2)c2cc(OC)c(OC)cc2n1 [Compound 314] = satisfied
COc1cc2nc(C(C)C)nc(N3CCN(c4ccccc4OC)CC3)c2cc1OC [Compound 312] = satisfied

Ask: For CCCc1nc(N2CCN(c3ccccc3OC)CC2)c2cc(OC)c(OC)cc2n1 [Compound 311] , is the recorded EC50 below the cut-off of 20 µM?
Reply: satisfied

Ask: Find out if reported EC50 for CCc1nc(N2CCN(c3ccccc3OC)CC2)c2cc(OC)c(OC)cc2n1 [Compound 310] is less than 20 µM
Reply: not satisfied

Ask: Just wondering, is EC50 of COc1cc2nc(C3CCC3)nc(N3CCN(c4ccccc4C)CC3)c2cc1OC [Compound 323] below 20 µM?
Reply: satisfied

Ask: Criterion: EC50 strictly below 20 µM. Is it met by COc1ccc(N2CCN(c3nc(C4CCC4)nc4cc(OC)c(OC)cc34)CC2)c(OC)c1 [Compound 330] ?
Reply: not satisfied

Ask: Could you please tell me whether EC50 recorded for COc1ccc(N2CCN(c3nc(C4CCC4)nc4cc(OC)c(OC)cc34)CC2)cc1 [Compound 329] is less than 20 µM?
Reply: not satisfied

Ask: Is EC50 strictly under 20 µM for the entry COc1cc2nc(CCN3CCN(c4ccccc4OC)CC3)nc(N3CCN(c4ccccc4OC)CC3)c2cc1OC [Compound 319] ?
Reply: not satisfied

Hello, the source for this data is patent US9868707B2, in case you need it.
